Just for reference, PubChem BioAssay (EPA / NIEHS) is where these values come from.

# EXPERIMENT DESCRIPTION: Tanguay_ZF_120hpf_PE_legacy: (Legacy) Oregon State University Tanguay Lab 120 Hour Post-fertilization zebrafish Assay for Pericardial Edema (AID 2283640)
Records with an inconclusive call do not appear. The source made the active and inactive calls. Rule for the calls: active = hit-call score of the fitted dose curve at least 0.9, where 1 is the maximum; inconclusive = response in the unintended direction; inactive = score below 0.9.
Outcomes: active, inactive

>  <COMPOUND>
COCCOC[C@H](CC1(C(=O)NC2CCC(C(=O)O)CC2)CCCC1)C(=O)Oc1ccc2c(c1)CCC2 (stereo partly drawn)

>  <CATEGORY LABEL>
inactive

$$$$
>  <COMPOUND>
O=c1c(O)c(-c2ccc(O)c(O)c2)oc2cc(O)cc(O)c12

>  <CATEGORY LABEL>
inactive

$$$$
>  <COMPOUND>
CCCCOC(=O)CCCCCCCCC(=O)OCCCC

>  <CATEGORY LABEL>
inactive

$$$$
>  <COMPOUND>
COc1cc(-c2nc(NC(=O)c3cc4cc(C)cc(C)c4n3CC(=O)O)sc2CCC2CCCCC2)c(OC)cc1Cl

>  <CATEGORY LABEL>
inactive

$$$$
>  <COMPOUND>
Cc1nc(-c2ccc3c(c2)CCN(CCC2CCC(NC(=O)/C=C/c4ccc(F)cc4)CC2)CC3)no1 (stereo not drawn)

>  <CATEGORY LABEL>
inactive

$$$$
>  <COMPOUND>
CCCCCCCCCCCC(=O)OC

>  <CATEGORY LABEL>
inactive

$$$$
>  <COMPOUND>
O=C(N[C@@H](Cc1ccccc1)[C@@H](O)C(=O)N1C[C@@H](O)[C@@H](O)C1)c1cc2cc(Cl)ccc2[nH]1

>  <CATEGORY LABEL>
inactive

$$$$
>  <COMPOUND>
Oc1ccc2ccccc2c1N=Nc1ccccc1

>  <CATEGORY LABEL>
active

$$$$
>  <COMPOUND>
NC(=O)Cn1c(=O)cc(CCN2CCN(c3nccc4sccc34)CC2)c2ccc(F)cc21

>  <CATEGORY LABEL>
inactive

$$$$
>  <COMPOUND>
Cc1ccc(C)c(C)c1

>  <CATEGORY LABEL>
inactive

$$$$
>  <COMPOUND>
Cc1cccc([N+](=O)[O-])c1C

>  <CATEGORY LABEL>
inactive

$$$$
>  <COMPOUND>
OC[C@@H](O)[C@@H](O)[C@H](O)[C@H](O)CO

>  <CATEGORY LABEL>
inactive

$$$$
>  <COMPOUND>
CC(=O)OC/C=C(\C)CCC=C(C)C

>  <CATEGORY LABEL>
inactive

$$$$

----------
# Read-out: solute carrier (SLCO1B1), SLCO1B1 (gene 10599)
# EXPERIMENT DESCRIPTION: LTEA_HepaRG_SLCO1B1: Life Technologies and Expression Analysis (LTEA) Assay for solute carrier (SLCO1B1) using HepaRG (AID 2283530)
# CONDITION DETAILS: mRNA level, 48 h; actives raise or lower the signal
Calls of active or inactive are those of the source. How the source made its calls: active means hit-call score of the fitted dose curve at least 0.9, where 1 is the maximum; inactive means score below 0.9.
Outcome codes: active, inactive

>  <COMPOUND>
CC(=O)C(C)=CC1C(C)=CCCC1(C)C (stereo not drawn)

>  <CATEGORY LABEL>
inactive

$$$$
>  <COMPOUND>
Cc1nc(-c2ccc3c(c2)CCN(CCC2CCC(NC(=O)/C=C/c4ccc(F)cc4)CC2)CC3)no1 (stereo not drawn)

>  <CATEGORY LABEL>
inactive

$$$$
>  <COMPOUND>
Nc1ccccc1N

>  <CATEGORY LABEL>
active

$$$$
>  <COMPOUND>
Cc1ccccc1Cl

>  <CATEGORY LABEL>
inactive

$$$$
>  <COMPOUND>
Clc1cc(Cl)c(Cl)cc1Cl

>  <CATEGORY LABEL>
inactive

$$$$
>  <COMPOUND>
CN1CCN(Cc2cc(-c3ccc4[nH]c(=O)oc4c3)co2)[C@@H](c2ccc(F)cc2)C1

>  <CATEGORY LABEL>
inactive

$$$$
>  <COMPOUND>
CCCCCCCC=O

>  <CATEGORY LABEL>
inactive

$$$$
>  <COMPOUND>
Cc1c(C(=O)O)c(O)cc2c1C(=O)c1c(O)c([C@@H]3O[C@H](CO)[C@@H](O)[C@H](O)[C@H]3O)c(O)c(O)c1C2=O

>  <CATEGORY LABEL>
inactive

$$$$
>  <COMPOUND>
CCCCCCCCCCCCCCCCCC(=O)O

>  <CATEGORY LABEL>
inactive

$$$$
>  <COMPOUND>
Cc1ccc(C)c(C)c1

>  <CATEGORY LABEL>
inactive

$$$$
>  <COMPOUND>
COC(=O)c1ccc(O)cc1

>  <CATEGORY LABEL>
inactive

$$$$
>  <COMPOUND>
O=[N+]([O-])C(CO)(CO)CO

>  <CATEGORY LABEL>
inactive

$$$$
>  <COMPOUND>
CCCCC(CC)COC(=O)CC(C(=O)OCC(CC)CCCC)S(=O)(=O)O (stereo not drawn)

>  <CATEGORY LABEL>
active

$$$$
>  <COMPOUND>
CC1(C)CC(N=C=O)CC(C)(CN=C=O)C1 (stereo not drawn)

>  <CATEGORY LABEL>
inactive

$$$$
>  <COMPOUND>
O=c1c(O)c(-c2ccc(O)c(O)c2)oc2cc(O)cc(O)c12

>  <CATEGORY LABEL>
active

$$$$
>  <COMPOUND>
CNCc1cc(F)ccc1Oc1ccc(Cl)c(Cl)c1

>  <CATEGORY LABEL>
active

$$$$
>  <COMPOUND>
OC[C@@H](O)[C@@H](O)[C@H](O)[C@H](O)CO

>  <CATEGORY LABEL>
inactive

$$$$
>  <COMPOUND>
Nc1ccc2c(c1)C(=O)c1ccccc1C2=O

>  <CATEGORY LABEL>
active

$$$$
>  <COMPOUND>
O=C(OCCCCCOC(=O)c1ccccc1)c1ccccc1

>  <CATEGORY LABEL>
active

$$$$
>  <COMPOUND>
NS(=O)(=O)c1cc2c(cc1Cl)NCNS2(=O)=O

>  <CATEGORY LABEL>
inactive

$$$$
>  <COMPOUND>
CCCCc1ccc2c(n1)[C@@H](c1ccc(OC)cc1C[C@H](C)C(=O)O)[C@H](C(=O)O)[C@H]2c1ccc2c(c1)OCO2

>  <CATEGORY LABEL>
inactive

$$$$
>  <COMPOUND>
Cc1cccc([N+](=O)[O-])c1C

>  <CATEGORY LABEL>
inactive

$$$$
>  <COMPOUND>
CC(C)c1ccc(C(=O)N=C(N)N)cc1S(C)(=O)=O

>  <CATEGORY LABEL>
inactive

$$$$
>  <COMPOUND>
CCCCCCCCCCC

>  <CATEGORY LABEL>
inactive

$$$$
>  <COMPOUND>
CC1=C(/C=C/C(C)=C/C=C/C(C)=C/CO)C(C)(C)CCC1

>  <CATEGORY LABEL>
inactive

$$$$
>  <COMPOUND>
Oc1ccc2c(c1)OC[C@@H](N1CCC(O)(c3ccc(F)cc3)CC1)[C@H]2O

>  <CATEGORY LABEL>
inactive

$$$$
>  <COMPOUND>
CCCCCC(=O)O

>  <CATEGORY LABEL>
inactive

$$$$
>  <COMPOUND>
CCCCCCCCCCCCCO

>  <CATEGORY LABEL>
inactive

$$$$
>  <COMPOUND>
C[Si]1(C)O[Si](C)(C)O[Si](C)(C)O[Si](C)(C)O1

>  <CATEGORY LABEL>
inactive

$$$$
>  <COMPOUND>
NC(=O)Cn1c(=O)cc(CCN2CCN(c3nccc4sccc34)CC2)c2ccc(F)cc21

>  <CATEGORY LABEL>
inactive

$$$$
>  <COMPOUND>
c1cc(-c2ccncc2)ccn1

>  <CATEGORY LABEL>
inactive

$$$$
>  <COMPOUND>
Cc1cc(=O)[nH]c(=S)[nH]1

>  <CATEGORY LABEL>
inactive

$$$$
>  <COMPOUND>
CN1CCCC1=O

>  <CATEGORY LABEL>
inactive

$$$$
>  <COMPOUND>
COc1cc(S(=O)(=O)O)c(C)cc1N=Nc1c(O)ccc2cc(S(=O)(=O)O)ccc12

>  <CATEGORY LABEL>
inactive

$$$$
>  <COMPOUND>
NCCO

>  <CATEGORY LABEL>
inactive

$$$$
>  <COMPOUND>
Nc1ccc(S(=O)(=O)c2ccc(N)cc2)cc1

>  <CATEGORY LABEL>
inactive

$$$$
>  <COMPOUND>
Cc1ccc(C(C)C)c(O)c1

>  <CATEGORY LABEL>
inactive

$$$$
>  <COMPOUND>
CC(=O)OC/C=C(\C)CCC=C(C)C

>  <CATEGORY LABEL>
inactive

$$$$
>  <COMPOUND>
Cc1ccc(Cl)cc1

>  <CATEGORY LABEL>
inactive

$$$$
>  <COMPOUND>
COc1cc(-c2nc(NC(=O)c3cc4cc(C)cc(C)c4n3CC(=O)O)sc2CCC2CCCCC2)c(OC)cc1Cl

>  <CATEGORY LABEL>
active

$$$$
>  <COMPOUND>
Nc1nc(N)c2nc(CNc3ccc(C(=O)N[C@@H](CCC(=O)O)C(=O)O)cc3)cnc2n1

>  <CATEGORY LABEL>
inactive

$$$$
>  <COMPOUND>
CCCCN(CCCC)CCCC

>  <CATEGORY LABEL>
inactive

$$$$
>  <COMPOUND>
CCCCOC(=O)CCCCCCCCC(=O)OCCCC

>  <CATEGORY LABEL>
inactive

$$$$
>  <COMPOUND>
O=C(N[C@@H](Cc1ccccc1)[C@@H](O)C(=O)N1C[C@@H](O)[C@@H](O)C1)c1cc2cc(Cl)ccc2[nH]1

>  <CATEGORY LABEL>
inactive

$$$$
>  <COMPOUND>
CC(CO)OC(C)CO (stereo not drawn) (tested in a mixture with another compound)

>  <CATEGORY LABEL>
inactive

$$$$
>  <COMPOUND>
CC(=O)Oc1ccccc1C(=O)O

>  <CATEGORY LABEL>
inactive

$$$$
>  <COMPOUND>
CCc1c(C(=O)NN2CCCCC2)nn(-c2ccc(Cl)cc2Cl)c1-c1ccc(Br)cc1

>  <CATEGORY LABEL>
active

$$$$
>  <COMPOUND>
CCCCCCCCCCCC(=O)OC

>  <CATEGORY LABEL>
inactive

$$$$
>  <COMPOUND>
CCCc1cc(=O)[nH]c(=S)[nH]1

>  <CATEGORY LABEL>
inactive

$$$$
>  <COMPOUND>
CC(=O)OCCOCCOCCOC(C)=O

>  <CATEGORY LABEL>
inactive

$$$$
>  <COMPOUND>
COCCOCCOC

>  <CATEGORY LABEL>
inactive

$$$$
>  <COMPOUND>
Cc1nc(C)nc(N2C[C@@H](C)N(c3ccnc([C@@H](C)O)n3)[C@@H](C)C2)n1

>  <CATEGORY LABEL>
inactive

$$$$
>  <COMPOUND>
Cc1ccc(N(C)C)cc1

>  <CATEGORY LABEL>
inactive

$$$$
